- Tested on: RPMI-8226 leukemia
- measurementProtocol: NCI tumour cell line growth inhibition, 48 h
For each record, write down the corresponding GI50.

-- ask Which GI50 is reported for this compound? Cc1nc2cc(Nc3nc(Nc4ccc(F)cc4)nc(-c4ccc(Cl)cc4)n3)ccc2n1Cc1ccccc1
-- reply 2.62 µM

-- ask Which GI50 is reported for this compound? O=C(Nc1cccc(Cl)c1)c1cc(Cl)ccc1O
-- reply 0.375 µM

-- ask Which GI50 is reported for this compound? Cc1ccc(-c2cc(C(Cl)Cl)on2)cc1
-- reply 33.8 µM

-- ask Which GI50 is reported for this compound? Cc1cc2c(-c3nc4ccccn4c3NC34CC5CC(CC(C5)C3)C4)c(O)c(O)cc2c(O)c1-c1c(C)cc2c(-c3nc4ccccn4c3NC34CC5CC(CC(C5)C3)C4)c(O)c(O)cc2c1O
-- reply 0.355 µM

-- ask Which GI50 is reported for this compound? Cc1ccc(S(=O)c2ccc([N+](=O)[O-])c3nonc23)cc1 (stereo not given)
-- reply 3.62 µM

###

- Test system: MALME-3M melanoma
- measurementProtocol: NCI tumour cell line growth inhibition, 48 h; in the data active = GI50 below about 0.43 µM; inactive = the rest
Output constraint: value belongs to active, inactive

-- ask Please state the recorded outcome for this compound: CC(=O)Nc1ccc2c(c1)CN1C(=O)c3ccccc3C1=N2
-- reply inactive

-- ask Please state the recorded outcome for this compound: CC(C)c1ccc2c(c1)c(SC(C)(C)C)c(CC(C)(C)C(=O)O)n2Cc1ccc(Cl)cc1
-- reply inactive

-- ask Please state the recorded outcome for this compound: COc1ccc(CNC(=O)c2ccc(-c3cc(-c4nnc(C)o4)ccc3C)cc2)cc1
-- reply inactive

-- ask Please state the recorded outcome for this compound: O=c1c2ccccc2c(=O)c2c1sc1c(=O)c3ccc(O)cc3c(=O)c12
-- reply active

-- ask Please state the recorded outcome for this compound: Cc1ccc(NCCNCC(O)CO)c2c(=O)c3ccccc3sc12 (stereo not given)
-- reply inactive

-- ask Please state the recorded outcome for this compound: N#CC1=C(N)NC(=S)C(C#N)C12Nc1ccccc1S2 (stereo not given)
-- reply inactive

-- ask Please state the recorded outcome for this compound: COc1ccc2c(c1)c(-c1cc(-c3cn(C)c4ccc(OC)cc34)[nH]n1)cn2C
-- reply inactive

-- ask Please state the recorded outcome for this compound: COC12C=C/C(=C(/C(=O)OCc3csc(SC)n3)C(=O)CCCCCCCCC3(OC)C=C/C(=C(/C(=O)OCc4cnc(SC)s4)C(=O)CCCCCCCC1)O3)O2 (stereo not given)
-- reply inactive

-- ask Please state the recorded outcome for this compound: CNc1ccc(N=Nc2cccc3ncccc23)cc1
-- reply inactive

-- ask Please state the recorded outcome for this compound: COc1ccc(-c2nn(-c3cccc(Cl)c3)cc2-c2cc(-c3cccs3)no2)cc1
-- reply inactive

###

- Tested on: OVCAR-5 ovarian
- measurementProtocol: NCI tumour cell line growth inhibition, 48 h
endpointLabel: TGI

-- ask Which TGI is reported for this compound? Nc1cc2nc(-c3ccccc3)cn2cn1
-- reply > 100 µM

-- ask Which TGI is reported for this compound? CC1(C)Oc2ccccc2N2O[C@@H]3C(=O)N(c4ccccc4)C(=O)[C@@H]3C21c1ccccc1 (stereo partly specified)
-- reply > 100 µM

-- ask Which TGI is reported for this compound? O=C(O)C(Cc1c[nH]c2ccccc12)N1C(=O)c2ccccc2C1=O (stereo unspecified)
-- reply > 100 µM

-- ask Which TGI is reported for this compound? CC(=O)OC1COC(N2c3ccccc3[C@@H]3CCc4c([nH]c5ccccc45)[C@@H]32)C(OC(C)=O)C1OC(C)=O (mixture of isomers)
-- reply > 100 µM

-- ask Which TGI is reported for this compound? Cc1ccc(NCCNCC(O)CO)c2c(=O)c3ccccc3sc12 (stereo unspecified)
-- reply 3.67 µM

-- ask Which TGI is reported for this compound? CCOC(=O)C(=Cc1c(-c2ccccc2)[nH]c2ccccc12)C(=O)OCC
-- reply 41.8 µM
